target: UniProt P21918; assay: Positive allosteric modulator activity at human dopamine D5 receptor expressed in CHO-K1 cells assessed as potentiation of dopamine-induced beta-arrestin2 recruitment by measuring dopamine EC50 at 50 uM incubated for 90 mins by PathHunter assay (Rvb = 81.7 nM)
Sequence (P21918 whole entry): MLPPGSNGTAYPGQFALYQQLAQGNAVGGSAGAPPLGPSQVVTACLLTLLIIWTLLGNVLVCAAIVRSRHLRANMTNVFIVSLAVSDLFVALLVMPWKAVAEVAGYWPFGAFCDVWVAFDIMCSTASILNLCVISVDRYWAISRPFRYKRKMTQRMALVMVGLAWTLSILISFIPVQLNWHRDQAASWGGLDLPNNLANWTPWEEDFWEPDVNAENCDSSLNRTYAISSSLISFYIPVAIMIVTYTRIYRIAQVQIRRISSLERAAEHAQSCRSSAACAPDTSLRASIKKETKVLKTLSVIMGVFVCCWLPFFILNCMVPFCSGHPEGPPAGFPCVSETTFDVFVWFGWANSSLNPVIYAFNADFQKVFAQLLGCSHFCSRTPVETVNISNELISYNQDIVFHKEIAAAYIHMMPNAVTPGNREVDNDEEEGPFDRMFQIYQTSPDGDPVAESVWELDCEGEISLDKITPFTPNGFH
pEC50: −log10 of the molar value.

{"given_smiles": "CC(C)Cc1nc2c(c(=O)c3ccccc3n2C)c(=O)n1-c1ccccc1", "pEC50": 6.99}
{"given_smiles": "COc1ccc(-n2c(CC3CCCCC3)nc3c(c(=O)c4ccccc4n3C)c2=O)cc1Cl", "pEC50": 7.03}
{"given_smiles": "COc1ccc(-n2c(CC(C)C)nc3c(c(=O)c4ccccc4n3C)c2=O)cc1Cl", "pEC50": 7.24}
{"given_smiles": "Cn1c2ccccc2c(=O)c2c(=O)n(-c3ccc(Cl)cc3)c(CC3CCCCC3)nc21", "pEC50": 7.13}
{"given_smiles": "Cn1c2ccccc2c(=O)c2c(=O)n(-c3cccc(Cl)c3)c(CC3CCCCC3)nc21", "pEC50": 7.02}
{"given_smiles": "Cn1c2ccccc2c(=O)c2c(=O)n(-c3ccc(Cl)cc3)c(C3CCCC3)nc21", "pEC50": 7.37}
{"given_smiles": "COc1ccc(-n2c(C3CCCC3)nc3c(c(=O)c4ccccc4n3C)c2=O)cc1", "pEC50": 7.60}
{"given_smiles": "COc1ccc(-n2c(CC(C)C)nc3c(c(=O)c4ccccc4n3C)c2=O)cc1", "pEC50": 7.47}
{"given_smiles": "COc1ccc(-n2c(C3CCCCC3)nc3c(c(=O)c4ccccc4n3C)c2=O)cc1", "pEC50": 7.21}
{"given_smiles": "Cc1ccc(-n2c(CC3CCCCC3)nc3c(c(=O)c4ccccc4n3C)c2=O)cc1", "pEC50": 6.77}

// provenance: BindingDB's records for doi:10.1016/j.bmcl.2020.127696
